test system: THP-1 cells; assay: Compound mediated uptake of TNFα-pHrodo in THP-1 cells (flow cytometry); type: cell-based; design: key: + = ΔMFI less than that of I-17; ++ = ΔMFI ≈ to that of I-17; +++ = ΔMFI greater than that of I-17; conditions: run 3; ΔMFI compared with I-17, uptake at 10 μM
propertyName: Uptake in THP1 cells (run) 3

Previously resolved entries follow.
molecule	propertyName	measValue
Cc1nc2ccc(-c3ccc(N4CCN(CCOCCn5cc(COCCOCCOCCOCCNC(=O)CC[C@H](NC(=O)c6ccc(NCc7cnc8nc(N)nc(O)c8n7)cc6)C(=O)O)nn5)CC4)nc3)cn2c1Cc1ccccc1OC(F)F (racemic)	Uptake in THP1 cells (run) 3	+
Cc1nc2cc(F)c(-c3cnc(OCCCCCn4cc(COCCNC(=O)CC[C@H](NC(=O)c5ccc(NCc6cnc7nc(N)nc(O)c7n6)cc5)C(=O)O)nn4)nc3)nc2c(N[C@H](C)c2cc(C#N)ccc2F)c1Cl	Uptake in THP1 cells (run) 3	+++
Nc1nc(O)c2nc(CNc3ccc(C(=O)N[C@@H](CCC(=O)NCCOCCOCCOCCOCc4cn(CCCCCOc5ccc(-c6ccc7nc(COc8cccc(N9CCCC9=O)c8)n(Cc8ccccc8OC(F)F)c7c6)cn5)nn4)C(=O)O)cc3)cnc2n1	Uptake in THP1 cells (run) 3	+++
Cc1nc2cc(F)c(-c3cnc(OCCCCCn4cc(COCCOCCOCCOCCNC(=O)CC[C@H](NC(=O)c5ccc(NCc6cnc7nc(N)nc(O)c7n6)cc5)C(=O)O)nn4)nc3)nc2c(N[C@H](C)c2cc(C#N)ccc2F)c1Cl	Uptake in THP1 cells (run) 3	++
Cc1nc2ccc(-c3cnn(CCCCCCn4cc(COCCOCCOCCOCCNC(=O)CC[C@H](NC(=O)c5ccc(NCc6cnc7nc(N)nc(O)c7n6)cc5)C(=O)O)nn4)c3)cn2c1Cc1cc(Cl)ccc1Cl	Uptake in THP1 cells (run) 3	+

Please report Uptake in THP1 cells (run) 3 for every entry that follows.
1. Cc1nc2cc(F)c(-c3cnc(OCCCCCn4cc(COCCOCCNC(=O)CC[C@H](NC(=O)c5ccc(NCc6cnc7nc(N)nc(O)c7n6)cc5)C(=O)O)nn4)nc3)nc2c(N[C@H](C)c2cc(C#N)ccc2F)c1Cl
2. Cc1nc2cc(F)c(-c3cnc(OCCCCCNC(=O)CC[C@H](NC(=O)c4ccc(NCc5cnc6nc(N)nc(O)c6n5)cc4)C(=O)O)nc3)nc2c(N[C@H](C)c2cc(C#N)ccc2F)c1Cl
3. Cc1nc2cc(F)c(-c3cnc(OCCCCCn4cc(COCCOCCOCCOCCOCCOCCNC(=O)CC[C@H](NC(=O)c5ccc(NCc6cnc7nc(N)nc(O)c7n6)cc5)C(=O)O)nn4)nc3)nc2c(N[C@H](C)c2cc(C#N)ccc2F)c1Cl
4. Cc1nc2ccc(-c3cnc(OCCOCCn4cc(COCCOCCOCCOCCNC(=O)CC[C@H](NC(=O)c5ccc(NCc6cnc7nc(N)nc(O)c7n6)cc5)C(=O)O)nn4)nc3)cc2n1Cc1ccccc1OC(F)F
5. Cc1nc2cc(F)c(-c3cnc(OCCCCCn4cc(CNC(=O)CC[C@H](NC(=O)c5ccc(NCc6cnc7nc(N)nc(O)c7n6)cc5)C(=O)O)nn4)nc3)nc2c(N[C@H](C)c2cc(C#N)ccc2F)c1Cl
6. Cc1nc2cc(F)c(-c3cnc(OCCCCCn4cc(COCCOCCOCCOCCOCCOCCOCCOCCOCCOCCNC(=O)CC[C@H](NC(=O)c5ccc(NCc6cnc7nc(N)nc(O)c7n6)cc5)C(=O)O)nn4)nc3)nc2c(N[C@H](C)c2cc(C#N)ccc2F)c1Cl

["+++", "++", "++", "+", "++", "+"]
